Hi there, I'd appreciate the recorded protein stability index for every entry that follows.
B1: GAGE1 (parent)
chain: QPPEMIGPMRPEQFSDEVEPATPE

Variants of: B1
Assay: protein stability index of a GFP-peptide fusion (GPS, HEK-293T) (PSI 1-6); higher = more stable;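 further: lentivirally expressed fusions sorted by FACS into six bins by GFP to DsRed ratio, PSI derived from sequencing read proportions per bin multiplied by bin number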
Settings: c terminus: a fixed tail appended
One number for each entry.

Consider the worked cases shown below.
Query: For P23L , what is its reported protein stability index?
Result: 4.9

Query: For T22P , what is its reported protein stability index?
Result: 5.08

Query: For A21D , what is its reported protein stability index?
Result: 5.12

Query: For R10V , what is its reported protein stability index?
Result: 4.98

Query: For P2T , what is its reported protein stability index?
Result: 5.09

Query: For P8V , what is its reported protein stability index?
Result: 5.67

Query: For E17G , what is its reported protein stability index?
Result: 5.16

Query: For E12M , what is its reported protein stability index?
Result: 5.15

Query: For M9C , what is its reported protein stability index?
Result: 5.7

Query: For P2W , what is its reported protein stability index?
Result: 4.48

Fill in protein stability index for each of the 5 variants listed.
1. E19K
2. E12Q
3. T22D
4. E24T
5. P11K

Result:
1: 4.42; 2: 5.57; 3: 5.43; 4: 4.98; 5: 5.63

Query: For D16A , what is its reported protein stability index?
Result: 5.69
